- Test system: SNB-75 CNS
- assay explanation: NCI-60 one-dose screen, 48 h
- stated conditions: 10 µM unless noted
- Method: Growth inhibition of the SNB-75 human tumor cell line is measured as a screen for anti-cancer activity. Cells are grown in 96 well plates and exposed to the test compound for 48 hours. Compounds are tested at a single concentration, which is 10^-5 M for most compounds. The reported endpoint is percent growth (GI% or GIPRCNT), where numbers from 0 - 100% represent growth inhibition, and numbers from -100% - 0 represent cell death. For example, a value of 40 represents 60% growth inhibition. […]
The panel holds about 83,000 compounds, 20% with a hit somewhere; the sample as a whole holds those more often. Calls of active or inactive are those of the source. The calls were made as follows: active = growth percent below 10; inactive = the rest.
Log the outcome using a class from 1 (yes) (active), 0 (no) (inactive)

Would you please look over these solved cases?
COc1cccc(/C=N/NC(=O)c2ccccc2Nc2ccnc(C(F)(F)F)c2)c1O: 0 (no)
COc1ccc(S(=O)(=O)N2CCCCC2)cc1NC(=O)c1[nH]c(C)c2c1CCCCC2=O: 1 (yes)
O=C1/C(=C/c2ccc(Cl)cc2)SC(=S)N1CCc1ccc(O)cc1: 0 (no)
c1ccc2[nH]c(-c3ccc(Nc4nc(N5CCCC5)nc5[nH]ncc45)cc3)nc2c1: 1 (yes)

Let's switch to this molecule now.
-- ask Just curious, what result did O=c1c(F)cn(Cc2ccccc2CCl)c(=O)n1Cc1ccccc1CCl get here?
-- reply 1 (yes)

---

- System: M14 melanoma
- assay explanation: NCI-60 one-dose screen, 48 h (100 = growth as untreated, 0 = no growth, -100 = all killed)
- stated conditions: 10 µM unless noted
About 83,000 compounds went through this panel and 20% of them were active in at least one assay; those are over-represented in the sample as a whole.
Threshold-based label: growth under 20% gives class 1, growth not under 20% gives class 0.

Would you please look over these solved cases?
CC/C=C\C[C@H]1C/C=C2/C(=O)C=C[C@H]2C/C=C\CCCC(=O)O1: class 1
O=C(CCl)Oc1ccc(-c2ccccc2)c(Br)c1: class 0
NC(=O)c1cc(I)ccc1NC(=O)/C=C/c1ccccc1Cl: class 1
O=S(=O)(Nc1ccc(NS(=O)(=O)c2ccccc2)c(Cl)c1)c1ccccc1: class 0
FC(F)(F)c1nc2c(NCc3ccc(-c4ccccc4)cc3)cccc2[nH]1: class 0

-- ask Lab note: confirm whether the reported growth for this molecule is below 20%, equality not counting. molecule: O=c1oc2c(C(F)(F)F)cccc2cc1-c1csc(Nc2ccc(OCCF)cc2)n1
-- reply class 1

---

- Tested on: RPMI-8226 leukemia
- assay explanation: NCI-60 one-dose screen, 48 h
- stated conditions: 10 µM unless noted
This is part of a sample that, as a whole, favours compounds with a hit. Of some 83,000 tested, about 20% had one in any assay. Active and inactive are the calls of the source. How the source made its calls: active means growth percent below 10; inactive means the rest.
Log the outcome using a class from active, inactive

Would you please look over these solved cases?
Oc1cccc2ccc(N/N=C/c3cc(CN4CCOCC4)c(O)c4ncccc34)nc12: inactive
CC(C)C[C@@H](NC(=O)[C@@H](Cc1ccccc1)NC(=O)c1cnccn1)B1Oc2ccc(C[C@H](NC(=O)[C@H](Cc3ccc4c(c3)OB([C@@H](CC(C)C)NC(=O)[C@@H](Cc3ccccc3)NC(=O)c3cnccn3)O4)NC(=O)[C@@H](N)CC3CCC4OB([C@@H](CC(C)C)NC(=O)[C@@H](CC5CCCCC5)NC(=O)C5CNCCN5)OC4C3)C(=O)NCCCC[C@@H]3NC(=O)[C@@H](Cc4ccccc4)NC(=O)[C@H](CC(=O)O)NC(=O)CNC(=O)[C@H](CCCNC(=N)N)NC3=O)cc2O1 (stereo not given in full): active
CSc1nc(-c2cccc(NC(=O)CCl)c2)c(C#N)c(=O)n1C: active
O=S(=O)(Nc1ccc(OC(F)F)cc1)c1ccc(-c2cnc(C3CC3)o2)cc1: inactive
CCCCN(CCCC)CCCn1c(-c2ccccc2)ccc1-c1ccccc1: active

-- ask Just curious, what result did CCOc1cc2ncc(C#N)c(Nc3ccc(F)c(Cl)c3)c2cc1NC(=O)CC1CCSS1 (stereo not given) get here?
-- reply active

-- ask Just curious, what result did CCCCC/C(C=C(C#N)C#N)=C/c1ccccc1 get here?
-- reply active

-- ask Just curious, what result did CC(O)CN(CC(C)O)c1ccc2c(c1)Cc1cc([N+](=O)[O-])ccc1-2 (stereo not given) get here?
-- reply inactive

-- ask Just curious, what result did COc1ccc(C2Nc3c(c(C(C)(C)C)nn3-c3ccccc3)C(=O)CS2)cc1 (stereo not given) get here?
-- reply inactive

-- ask Just curious, what result did Cc1cc(C)nc(SC2=C(Nc3cccc(Cl)c3)C(=O)N(Cc3ccccc3)C2=O)n1 get here?
-- reply inactive

-- ask Just curious, what result did Nc1ccn(-c2ccc(Br)cc2)c(=O)n1 get here?
-- reply inactive

---

- System: UACC-62 melanoma
- assay explanation: NCI-60 one-dose screen, 48 h (100 = growth as untreated, 0 = no growth, -100 = all killed)
- stated conditions: 10 µM unless noted
About 83,000 compounds went through this panel and 20% of them were active in at least one assay; those are over-represented in the sample as a whole.
Recorded growth by entry
Write it as a number; the unit % goes unstated.

For orientation, consider the following solved cases.
NC(=O)c1cc(Br)ccc1NC(=O)/C=C/c1ccccc1: 43
COc1cccc(C2=NN3C(C2)c2cc(Br)cc(OC)c2OC32CCN(Cc3ccccc3)CC2)c1 (stereo not given): 98.7

-- ask What measured growth is associated with CC(C)(C)N1CCC1CN (stereo not given) on UACC-62 melanoma?
-- reply 112

-- ask What measured growth is associated with CCOc1nc(-c2ccccc2)cc2c(O)c(C(=O)O)[nH]c(=O)c12 on UACC-62 melanoma?
-- reply 110

-- ask What measured growth is associated with COC(=O)c1ccc2oc(NC(=O)c3ccc(Nc4ccc([N+](=O)[O-])cc4C)c([N+](=O)[O-])c3)nc2c1 on UACC-62 melanoma?
-- reply 100

---

- Test system: ACHN renal
- assay explanation: NCI-60 one-dose screen, 48 h (100 = growth as untreated, 0 = no growth, -100 = all killed)
- stated conditions: 10 µM unless noted
This is part of a sample that, as a whole, favours compounds with a hit. Of some 83,000 tested, about 20% had one in any assay.
Recorded growth by entry
Write it as a number; the unit % goes unstated.

For orientation, consider the following solved cases.
O=C(/C=C/c1ccccc1)c1ccc(O)c(CN2CCN(c3cc4c(cc3F)c(=O)c(C(=O)O)cn4C3CC3)CC2)c1: 14.4
CC(=O)c1cc2c(N)c(C(=O)Nc3ccccc3)sc2nc1C: 91.7
NC(=O)c1cc(Cl)ccc1NC(=O)/C=C/c1ccccc1: 59.8
Cc1cn2c(/C=C3/C(=O)Nc4c3ccc3ccccc43)c(C(F)(F)F)nc2s1: 48.5
COc1ccc2c(c1)C(=O)/C(=C/c1cccnc1)CC2: 88.5
N#CN1CCC[C@H]1C(=O)N1CCc2c(-c3[nH]nc4ncccc34)cccc21: 6.01
CC/C=C\C[C@H](O)C/C=C1/C(=O)C=C[C@@]1(C)C/C=C\CCCC(=O)OC: 101
CCCCCCCCCCCCC[N+](C)(C)Cc1ccccc1: 16.8
COc1cc(/C=C/c2cc(O)c3cc(C(C)=O)c(=O)oc3c2)cc2c1O[C@]1(C)CC[C@@H](O)C(C)(C)[C@H]1C2: 40.9

For the next question, use this compound.
-- ask Recorded growth for CCOc1cc2c(cc1OCC)C(c1cc(OC)c(O)cc1Cl)NCC2 (stereo not given) , please?
-- reply 94.6

---

- Test system: OVCAR-3 ovarian
- assay explanation: NCI-60 one-dose screen, 48 h (100 = growth as untreated, 0 = no growth, -100 = all killed)
- stated conditions: 10 µM unless noted
The panel holds about 83,000 compounds, 20% with a hit somewhere; the sample as a whole holds those more often.
Cut-off 80% on growth, inclusive. At or above means MET; below means NOT MET.

COc1cc2c(cc1O)CC[C@@H]1[C@@H]2CC[C@]2(C)[C@@H](OCCCN(C)C)CC[C@@H]12: NOT MET

-- ask # check: growth of Cn1ccnc1C(=O)/C=C/c1ccc(CC(=O)Nc2ccccc2)cc1 is greater than or equal to 80%
-- reply NOT MET

-- ask # check: growth of Cn1ncc2c(=O)nc3c(-c4ccccc4)n[nH]n3c21 is greater than or equal to 80%
-- reply MET

-- ask # check: growth of O=C1C=C(O)C(=O)C(CC2=C(O)C(=O)C=C(O)C2=O)=C1O is greater than or equal to 80%
-- reply MET

-- ask # check: growth of C=C(C)[C@@H]1CC[C@]2(C(N)=O)CC[C@]3(C)[C@H](CC[C@@H]4[C@@]5(C)C/C(=C/c6ccco6)C(=O)C(C)(C)[C@@H]5CC[C@]43C)[C@@H]12 is greater than or equal to 80%
-- reply MET

-- ask # check: growth of COc1cccc(-c2nc3sccn3c2-c2ccnc(NCCCNS(=O)(=O)c3cccc(Cl)c3)c2)c1 is greater than or equal to 80%
-- reply NOT MET

-- ask # check: growth of COc1ccc(CN2c3ccccc3Oc3ccccc32)cc1F is greater than or equal to 80%
-- reply NOT MET

-- ask # check: growth of COc1cc(C(=O)Oc2ccccc2OC(=O)c2cc(OC)c(OC)c(OC)c2)cc(OC)c1OC is greater than or equal to 80%
-- reply MET
